inhibition at 10 µM overview
Biological target: GST-tagged ROR gamma ligand binding domain (LBD) (Homo sapiens)
Construct: purchased Invitrogen
Sequence (P51449 269-508 limits assumed): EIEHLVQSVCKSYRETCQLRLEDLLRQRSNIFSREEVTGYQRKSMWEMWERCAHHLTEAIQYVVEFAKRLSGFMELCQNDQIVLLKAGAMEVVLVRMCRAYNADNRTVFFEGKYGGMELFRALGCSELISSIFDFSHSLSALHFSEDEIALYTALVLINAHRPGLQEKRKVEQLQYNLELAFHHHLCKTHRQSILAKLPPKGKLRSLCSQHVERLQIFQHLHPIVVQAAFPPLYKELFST
Experiment: TR-FRET assay for ROR gamma (LanthaScreen, Fluorescein-D22 co-activator peptide recruitment)
Format: biochemical
Settings: 10 μM compound; TR-FRET ratio 520/495
Source text: The compounds described herein were screened for ROR gamma modulator activity using the TR-FRET assay (LanthaScreen™ available from Invitrogen of Carlsbad, Calif.) as described in JBC 2011, 286, 26: 22707-10; and Drug Metabolism and Disposition 2009, 37, 10: 2069-78. The assay is based on the principle that binding of the agonist to the ROR gamma causes a conformational change around helix 12 in the ligand binding domain, resulting in higher affinity for the co-activator peptide. […]
Report only the number, with the unit % understood.

// worked examples, inhibition at 10 µM included
1) Cc1cc(N(C)C(=O)c2ccc(NC(=O)Cc3ccc(C(F)(F)C(C)O)cc3)cc2)c(F)cc1Cl (stereo not shown)    96.3
2) Cc1cc(C)cc(N(C)C(=O)c2ccc(NC(=O)Cc3ccc(C(F)(F)CO)cc3)cc2)c1    95.1
3) CCC(F)(F)c1ccc(CC(=O)Nc2ccc(C(=O)N(C)[C@@H](c3ccc(Cl)cc3)C3CC3)cc2)cc1    90

Let me know recorded inhibition at 10 µM for Cc1cc(C)cc(N(C)C(=O)c2ccc(NC(=O)Cc3ccc(C(F)(F)C(C)O)cc3)cc2)c1 (stereo not shown) , thanks.
96.5

----------
inhibition at 10 µM overview
target: GST-tagged ROR gamma ligand binding domain (LBD) (Homo sapiens); construct: purchased Invitrogen; assay: TR-FRET assay for ROR gamma (LanthaScreen, Fluorescein-D22 co-activator peptide recruitment); type: biochemical; conditions: 10 μM compound; TR-FRET ratio 520/495
Report only the number, with the unit % understood.

1. Cc1cc(Cl)ccc1N(C)C(=O)c1ccc(NC(=O)Cc2ccc(C(F)(F)C(C)O)cc2)cc1 (centres unmarked) [Example 24]    88.7
2. Cc1ccc(N(C)C(=O)c2ccc(NC(=O)Cc3ccc(C(F)(F)[C@@H](C)O)cc3)cc2)c(Cl)c1 [Example 29]    87.1
3. Cc1cc(C)c(N(C)C(=O)c2ccc(NC(=O)Cc3ccc(C(F)(F)C(C)O)cc3)cc2)c(Cl)c1 (centres unmarked) [Example 33]    90.2
4. Cc1ccc(C2CC2)cc1N(C)C(=O)c1ccc(NC(=O)Cc2ccc(C(F)(F)C(C)O)cc2)cc1 (centres unmarked) [Example 39]    92
5. Cc1ccc(Cl)c(N(C)C(=O)c2ccc(NC(=O)Cc3ccc(C(F)(F)C(C)O)cc3)cc2)c1 (centres unmarked) [Example 27]    92

Report inhibition at 10 µM on GST-tagged ROR gamma ligand binding domain (LBD) (Homo sapiens) for this entry: CCC(F)(F)c1ccc(CC(=O)Nc2ccc(C(=O)N(C)c3cc(C)cc(C)c3)cc2)cc1 [Example 11]
92.9

Report inhibition at 10 µM on GST-tagged ROR gamma ligand binding domain (LBD) (Homo sapiens) for this entry: Cc1ccc(N(C)C(=O)c2ccc(NC(=O)Cc3ccc(C(F)(F)C(C)O)cc3)cc2)c(C2CC2)c1 (centres unmarked) [Example 34]
92.6

Report inhibition at 10 µM on GST-tagged ROR gamma ligand binding domain (LBD) (Homo sapiens) for this entry: CC(O)C(F)(F)c1ccc(CC(=O)Nc2ccc(C(=O)N(C)c3cc(Cl)cc(Cl)c3)cc2)cc1 (centres unmarked) [Example 21]
87.9

Report inhibition at 10 µM on GST-tagged ROR gamma ligand binding domain (LBD) (Homo sapiens) for this entry: Cc1cc(C)cc(N(C)C(=O)c2ccc(NC(=O)Cc3ccc(C(F)(F)C(C)(C)O)cc3)cc2)c1 [Example 9]
97

Report inhibition at 10 µM on GST-tagged ROR gamma ligand binding domain (LBD) (Homo sapiens) for this entry: CCC(F)(F)c1ccc(CC(=O)Nc2ccc(C(=O)N(C)c3cc(Cl)ccc3Cl)cc2)cc1 [Example 4]
91.1

Report inhibition at 10 µM on GST-tagged ROR gamma ligand binding domain (LBD) (Homo sapiens) for this entry: COCC(F)(F)c1ccc(CC(=O)Nc2ccc(C(=O)N(C)c3cc(C)cc(C)c3)cc2)cc1 [Example 10]
95.3

Report inhibition at 10 µM on GST-tagged ROR gamma ligand binding domain (LBD) (Homo sapiens) for this entry: CC(O)C(F)(F)c1ccc(CC(=O)Nc2ccc(C(=O)N(C)c3cccc(Cl)c3F)cc2)cc1 (centres unmarked) [Example 26]
93.2

Report inhibition at 10 µM on GST-tagged ROR gamma ligand binding domain (LBD) (Homo sapiens) for this entry: Cc1ccc(N(C)C(=O)c2ccc(NC(=O)Cc3ccc(C(F)(F)[C@H](C)O)cc3)cc2)c(Cl)c1 [Example 30]
88.7

Report inhibition at 10 µM on GST-tagged ROR gamma ligand binding domain (LBD) (Homo sapiens) for this entry: CCC(F)(F)c1ccc(CC(=O)Nc2ccc(C(=O)N(C)c3cc(C)cc(-c4ccccc4F)c3)cc2)cc1 [Example 13]
90.6

Report inhibition at 10 µM on GST-tagged ROR gamma ligand binding domain (LBD) (Homo sapiens) for this entry: Cc1ccc(N(C)C(=O)c2ccc(NC(=O)Cc3ccc(C(F)(F)C(C)O)cc3)cc2)c(Cl)c1 (centres unmarked) [Example 23]
93.2

Report inhibition at 10 µM on GST-tagged ROR gamma ligand binding domain (LBD) (Homo sapiens) for this entry: Cc1ccc(F)c(N(C)C(=O)c2ccc(NC(=O)Cc3ccc(C(F)(F)C(C)O)cc3)cc2)c1 (centres unmarked) [Example 28]
93.9

Report inhibition at 10 µM on GST-tagged ROR gamma ligand binding domain (LBD) (Homo sapiens) for this entry: CCC(F)(F)c1ccc(CC(=O)Nc2ccc(C(=O)N(C)[C@H](C)c3ccc(Cl)cc3)cc2)cc1 [Example 17]
90.8

Report inhibition at 10 µM on GST-tagged ROR gamma ligand binding domain (LBD) (Homo sapiens) for this entry: CC(O)C(F)(F)c1ccc(CC(=O)Nc2ccc(C(=O)N(C)c3ccccc3Cl)cc2)cc1 (centres unmarked) [Example 15]
92.8

Report inhibition at 10 µM on GST-tagged ROR gamma ligand binding domain (LBD) (Homo sapiens) for this entry: CCC(F)(F)c1ccc(CC(=O)Nc2ccc(C(=O)N(C)[C@@H](C)c3ccc(Cl)cc3)cc2)cc1 [Example 20]
75

Report inhibition at 10 µM on GST-tagged ROR gamma ligand binding domain (LBD) (Homo sapiens) for this entry: CC(O)C(F)(F)c1ccc(CC(=O)Nc2ccc(C(=O)N(C)c3ccc(Cl)cc3Cl)cc2)cc1 (centres unmarked) [Example 25]
90

Report inhibition at 10 µM on GST-tagged ROR gamma ligand binding domain (LBD) (Homo sapiens) for this entry: CC(O)C(F)(F)c1ccc(CC(=O)Nc2ccc(C(=O)N(C)[C@@H](c3ccc(Cl)cc3)C3CC3)cc2)cc1 (some centres unmarked) [Example 19]
92.8

Report inhibition at 10 µM on GST-tagged ROR gamma ligand binding domain (LBD) (Homo sapiens) for this entry: Cc1cc(C)c(N(C)C(=O)c2ccc(NC(=O)Cc3ccc(C(F)(F)C(C)O)cc3)cc2)c(C)c1 (centres unmarked) [Example 32]
95

Report inhibition at 10 µM on GST-tagged ROR gamma ligand binding domain (LBD) (Homo sapiens) for this entry: CN(C(=O)c1ccc(NC(=O)Cc2ccc(C(F)(F)C(N)=O)cc2)cc1)c1ccc(Cl)cc1 [Example 2]
43.4

Report inhibition at 10 µM on GST-tagged ROR gamma ligand binding domain (LBD) (Homo sapiens) for this entry: CN(C(=O)c1ccc(NC(=O)Cc2ccc(C(F)(F)CO)cc2)cc1)c1ccc(Cl)cc1 [Example 3]
85.8

Report inhibition at 10 µM on GST-tagged ROR gamma ligand binding domain (LBD) (Homo sapiens) for this entry: CC(O)C(F)(F)c1ccc(CC(=O)Nc2ccc(C(=O)N(C)c3ccc(C4CC4)cc3Cl)cc2)cc1 (centres unmarked) [Example 38]
94.8

Report inhibition at 10 µM on GST-tagged ROR gamma ligand binding domain (LBD) (Homo sapiens) for this entry: CCC(F)(F)c1ccc(CC(=O)Nc2ccc(C(=O)N(C)c3ccccc3Cl)cc2)cc1 [Example 6]
91.2
